Tested on: HEPG2
Assay: Euclidean distance of Cell Painting phenotypic profile (signed KS, 77 features) to DMSO centroid (dimensionless distance); 5 or 10 uM (library dependent); higher = stronger phenotypic change vs DMSO (phenoactivity)
Details: 48 h
assay_readout: Euclidean distance

molecule | system_tested | assay_readout | obs_value
O=C(O)/C=C/c1ccc(Cn2ccnc2)cc1 [Ozagrel] | HEPG2 | Euclidean distance | 0.736
C[n+]1ccccc1/C=N/O [Pralidoxime chloride] | HEPG2 | Euclidean distance | 0.755
C=CC(=O)Nc1cc2c(Nc3ccc(F)c(Cl)c3)ncnc2cc1OCCCN1CCOCC1 | HEPG2 | Euclidean distance | 0.69

Record CS(=O)(=O)OCCCCOS(C)(=O)=O , field Euclidean distance: 0.977

Value of measured Euclidean distance for the entry O=C(C[S+]([O-])Cc1ccco1)NC/C=C\COc1cc(CN2CCCCC2)ccn1 (stereo not given) : 2.06

* * *

System: 786-O
Experiment: Euclidean distance of Cell Painting phenotypic profile (signed KS, 77 features) to DMSO centroid (dimensionless distance); 5 or 10 uM (library dependent); higher = stronger phenotypic change vs DMSO (phenoactivity)
Conditions: 48 h
Counter-ions that a name gives are not always drawn.
assay_readout: Euclidean distance
# output: bare number, no unit

# count of solved cases: 3
molecule | Euclidean distance
O=C(O)Cc1ccccc1Nc1c(Cl)cccc1Cl [Diclofenac Potassium] | 1.38
CN(CCCCCCCCCCN(C)C(=O)Oc1cccc([N+](C)(C)C)c1)C(=O)Oc1cccc([N+](C)(C)C)c1 [Demecarium Bromide] | 0.786
OCc1c[nH]c2ccccc12 | 1.05

Euclidean distance recorded for this molecule, CC(C)(F)C[C@H](N[C@@H](c1ccc(-c2ccc(S(C)(=O)=O)cc2)cc1)C(F)(F)F)C(=O)NC1(C#N)CC1 , is 0.533

Notebook: Nc1nc(N)c2nc(-c3cccc(O)c3)c(-c3cccc(O)c3)nc2n1 , Euclidean distance read as 1.06

Per the record, CN[C@H]1CN(c2ccc3c(=O)c(C(=O)O)cn(-c4nccs4)c3n2)C[C@@H]1OC [Voreloxin (SNS-595) hydrochloride] has Euclidean distance of 3.32

Input NCCCC[C@H](NC(=O)[C@@H](NC(=O)[C@H](Cc1c[nH]c2ccccc12)NC(=O)[C@H](CCCCN)NC(=O)[C@H](CCCCN)NC(=O)[C@H](Cc1c[nH]c2ccccc12)NC(=O)[C@H](Cc1c[nH]c2ccccc12)NC(=O)[C@H](CCCCN)NC(=O)[C@@H](N)CCCCN)C(c1ccccc1)c1ccccc1)C(N)=O . Output Euclidean distance: 4.67

Lab note: O=C(NC[C@H](O)CO)c1ccncc1Nc1ccc(I)cc1F gave Euclidean distance of 2.39

* * *

# Euclidean distance per entry
Test system: OVCAR4
Assay: Euclidean distance of Cell Painting phenotypic profile (signed KS, 77 features) to DMSO centroid (dimensionless distance); 5 or 10 uM (library dependent); higher = stronger phenotypic change vs DMSO (phenoactivity)
Conditions: 48 h
Where a name gives a salt, the structure may show the parent alone.

// worked examples, Euclidean distance included
compound | Euclidean distance
CC(=O)[C@H]1CC[C@H]2[C@@H]3CCC4=CC(=O)CC[C@]4(C)[C@H]3CC[C@]12C | 0.832
C=C1CCN([C@H](C)[C@](O)(Cn2cncn2)c2ccc(F)cc2F)CC1 | 0.881
CN(C)CCOc1ccc(/C(=C(/CCCl)c2ccccc2)c2ccccc2)cc1 [Toremifene Citrate] | 2.17
O=C(c1cc(Cc2n[nH]c(=O)c3ccccc23)ccc1F)N1CCN(C(=O)C2CC2)CC1 | 1.11
COc1ccccc1N1CCN(CCCNc2cc(=O)n(C)c(=O)n2C)CC1 [Urapidil HCl] | 0.898

Lookup result for C=C1CC[C@H](O)C/C1=C/C=C1\CCC[C@]2(C)[C@@H]([C@H](C)/C=C/[C@H](C)C(C)C)CC[C@@H]12 [Vitamin D2] ; measured Euclidean distance: 2.05

Input C=C[C@@H]1C[C@]1(NC(=O)[C@@H]1C[C@@H]2CN1C(=O)[C@H](C(C)(C)C)NC(=O)O[C@@H]1C[C@H]1CCCCCc1nc3ccc(OC)cc3nc1O2)C(=O)NS(=O)(=O)C1CC1 . Output Euclidean distance: 1.22

* * *

Test system: DU145
Assay: Euclidean distance of Cell Painting phenotypic profile (signed KS, 77 features) to DMSO centroid (dimensionless distance); 5 or 10 uM (library dependent); higher = stronger phenotypic change vs DMSO (phenoactivity)
Settings: 48 h
Structures can show the parent of a compound that is named as a salt.
Each entry gets Criterion not met if its Euclidean distance stays under 1, and Criterion met if its Euclidean distance is 1 or above.

molecule | system_tested | qualitative_label
CCOC(=O)N1CCC(=C2c3ccc(Cl)cc3CCc3cccnc32)CC1 | DU145 | Criterion not met
CCN(CC)CCOCCOC(=O)C1(c2ccccc2)CCCC1 [Pentoxyverine Citrate] | DU145 | Criterion not met
C[C@@H]1O[C@@H](Oc2c(-c3ccc(O)c(O)c3)oc3cc(O)cc(O)c3c2=O)[C@H](O)[C@H](O)[C@H]1O | DU145 | Criterion not met
CN1CCN(Cc2ccc(Nc3ncc(Cl)c(Nc4ccccc4S(=O)(=O)N(C)C)n3)cc2)CC1 | DU145 | Criterion met

Exercise: Record COc1ccc2cc(CCC(C)=O)ccc2c1 ; criterion: Euclidean distance no lower than 1. Met?
Solution: Criterion not met

Exercise: Hi team, for COc1cc(C)c(/C=C/C(C)=C/C=C/C(C)=C/C(=O)O)c(C)c1C , is the recorded Euclidean distance at or above 1?
Solution: Criterion not met

* * *

System: OVCAR4
Assay: Euclidean distance of Cell Painting phenotypic profile (signed KS, 77 features) to DMSO centroid (dimensionless distance); 5 or 10 uM (library dependent); higher = stronger phenotypic change vs DMSO (phenoactivity)
Settings: 48 h
Counter-ions that a name gives are not always drawn.
assay_readout: Euclidean distance
Just the number, please.

Worked examples follow.
molecule | obs_value
Cn1cc(-c2nc(N[C@@H]3CCCC[C@@H]3N)c(F)c3c2C(=O)NC3)cn1 | 2.99
CCOC(=O)C1=C(C)NC(C)=C(C(=O)OC)C1c1cccc(Cl)c1Cl (stereo not drawn) | 0.942
O=C(O)c1cn(C2CC2)c2cc(N3CCNCC3)c(F)cc2c1=O [Ciprofloxacin hydrochloride hydrate] | 1.87
FC(F)(F)C(Cl)Br (stereo not drawn) | 1.59

The reported OVCAR4 Euclidean distance of CCCCOCCOCCOCc1cc2c(cc1CCC)OCO2 [Piperonyl butoxide] is 1.04

* * *

Listed here: items and their measured Euclidean distance.
System: 786-O
Assay: Euclidean distance of Cell Painting phenotypic profile (signed KS, 77 features) to DMSO centroid (dimensionless distance); 5 or 10 uM (library dependent); higher = stronger phenotypic change vs DMSO (phenoactivity)
Details: 48 h
Structures can show the parent of a compound that is named as a salt.
Output spec: single numeric token, no unit.

For this compound ( CC(C)CN(C[C@@H](OP(=O)(O)O)[C@H](Cc1ccccc1)NC(=O)O[C@H]1CCOC1)S(=O)(=O)c1ccc(N)cc1 [Fosamprenavir calcium salt] ), measured Euclidean distance is 1.44

So for OC[C@H]1O[C@@H](Oc2cc(O)cc(/C=C/c3ccc(O)cc3)c2)[C@H](O)[C@@H](O)[C@@H]1O [Polydatin] , the logged Euclidean distance turned out to be 1.21

response.value for O=S1(=O)CCN(CN2CCS(=O)(=O)NC2)CN1 [Taurolidine] (field: Euclidean distance) = 1.32

Field Euclidean distance (entry CCCCc1nc2cc(/C=C/C(=O)NO)ccc2n1CCN(CC)CC [Pracinostat (SB939)] ) reads 2.82

compound CC(=O)Nc1nc2c(Oc3cc(-c4ccc(C(F)(F)F)cc4)ncn3)cccc2s1 , Euclidean distance observed: 0.826

Field Euclidean distance (entry Cc1ccc(Nc2nccc(N(C)c3ccc4c(C)n(C)nc4c3)n2)cc1S(N)(=O)=O ) reads 2.42

Per the record, Cn1ncc(Cl)c1-c1cc(C(=O)N[C@H](CN)Cc2ccc(F)c(F)c2)oc1Cl has Euclidean distance of 3.04

Euclidean distance recorded for this compound, NS(=O)(=O)c1ccc(NC(=O)Nc2ccc(F)cc2)cc1 , is 0.711

* * *

Tested on: DU145
Experiment: Euclidean distance of Cell Painting phenotypic profile (signed KS, 77 features) to DMSO centroid (dimensionless distance); 5 or 10 uM (library dependent); higher = stronger phenotypic change vs DMSO (phenoactivity)
Conditions: 48 h
Structures can show the parent of a compound that is named as a salt.
assay_readout: Euclidean distance

compound | Euclidean distance
Cc1ccc(O)c([C@H](CCN(C(C)C)C(C)C)c2ccccc2)c1 [Tolterodine tartrate] | 0.897
CCn1cc(C(=O)O)c(=O)c2cc(F)c(N3CCNCC3)nc21 [Enoxacin Sesquihydrate] | 0.79

Recorded result, OCc1cc(C(O)CNCCCCCCOCCCCc2ccccc2)ccc1O (centres undefined) [Salmeterol Xinafoate] , Euclidean distance: 1.58

Euclidean distance in this record for CCCCC(CC)COC(=O)CC(C(=O)OCC(CC)CCCC)S(=O)(=O)O (centres undefined) [Docusate Sodium] : 0.942

Reported Euclidean distance ( O=C(Nc1c(Cl)cncc1Cl)c1ccc(OC(F)F)c(OCC2CC2)c1 [Roflumilast] ) = 0.92

GET /value?item= CCN1C(=O)C=CC1=O [N-Ethylmaleimide (NEM)] &field=Euclidean distance returns 1.23

// Euclidean distance value for CN(C)C[C@@H]1CCn2cc(c3ccccc32)C2=C(C(=O)NC2=O)c2cn(c3ccccc23)CCO1 : 4.1

# Euclidean distance (compound: C[C@@H](O)[C@H]1C(=O)N2C(C(=O)O)=C(S[C@@H]3CN[C@H](C(=O)N(C)C)C3)[C@H](C)[C@H]12 [Meropenem Trihydrate] ) is 0.738

According to the records, this compound N#Cc1ccc(C2CCCc3cncn32)cc1 (centres undefined) [Fadrozole] displays Euclidean distance of 0.93
